- experimental_details: qHTS of pediatric cancer cell lines to identify multiple opportunities for drug repurposing: Primary screen for OHS-50 cells (AID 1347103); further: nearly all actives have a fitted effect of over 40% in size
- run_parameters: OHS-50 osteosarcoma viability, CellTiter-Glo luminescence, 48 h; series mostly up to 57.3 µM
Inconclusive results are not listed. Activity calls are given as the source filed them. The call rests on the fitted dose curve; in most records, active means well fitted cell-killing curve with a large enough effect; inconclusive means small, poorly fitted or top-dose-only effect; inactive means no such curve, though single readings can be large or run the other way.
Valid outcomes are listed here; reply with one: true (1) for active, false (0) for inactive

INSERT INTO assay_data (molecule_smiles, class) VALUES
  ('C=C1c2cccc(O)c2C(O)=C2C(=O)[C@@]3(O)C(O)=C(C(N)=O)C(=O)[C@@H](N(C)C)[C@@H]3[C@@H](O)[C@H]12', 'false (0)'),
  ('CCN1C[C@H](C)n2c(c(O)c3c(=O)n(Cc4ccc(F)c(Cl)c4)nc(C(=O)NC)c32)C1=O', 'false (0)'),
  ('Cc1ccc(C(=O)N(CCCN)[C@@H](c2oc3cc(Cl)ccc3c(=O)c2Cc2ccccc2)C(C)C)cc1', 'true (1)'),
  ('CC(=O)NCCC(=O)N[C@@H](CCC(N)=O)C(=O)N[C@@H](CO)C(=O)N[C@@H](CCC(N)=O)C(=O)N[C@@H](CCC(N)=O)C(=O)N[C@H](C(=O)N[C@@H](Cc1ccccc1)C(=O)N[C@]1(C)CCCCCCC=CCCC[C@@](C)(C(=O)N[C@@H](CCC(N)=O)C(=O)N[C@@H](CC(N)=O)C(N)=O)NC(=O)[C@H](CC(C)C)NC(=O)[C@H](CC(C)C)NC(=O)[C@@H](CCCNC(=N)N)NC(=O)[C@H](Cc2c[nH]c3ccccc23)NC(=O)[C@H](CC(C)C)NC(=O)[C@H](CC(N)=O)NC1=O)[C@H](C)O', 'false (0)'),
  ('CCCCC(F)(F)[C@@]1(O)CC[C@H]2[C@H](CC(=O)[C@@H]2CCCCCCC(=O)O)O1', 'false (0)');

Assay result, entry CC(C)n1c(C=C[C@H](O)C[C@H](O)CC(=O)O)c(-c2ccc(F)cc2)c2ccccc21 — outcome?
true (1)

Queued: CN[C@@H]1[C@@H](O)[C@@H](O[C@@H]2[C@@H](O)[C@H](O[C@H]3O[C@H](CN)[C@@H](O)[C@H](O)[C@@H]3O)[C@@H](N)C[C@@H]2NC(=O)[C@@H](O)CN)OC[C@]1(C)O
false (0)

Queued: CCC(=C(CC)c1ccc(O)cc1)c1ccc(O)cc1
true (1)
